As shown below, each of these sequences has a reported apparent KD of MS2 coat protein value.
# Tested on: MS2 coat protein
# ASSAY REMARKS: apparent KD of MS2 coat protein; designed switch direction (-1 OFF switch, 1 ON switch): 1; higher = weaker reporter binding
# COND: Eterna round: R95; input ligand: FMN 200 uM
Write the quantity with the unit trailing the number.

The following sequences have reported results that may help.
* UUCUCACAUGAGGAUCACCCAUGUGAGCCUCUGUGAGGAUAUCCGACAUAAUUAAGUGAAGGAGAAGGUACACGAG [Malean] (puzzle: Same State 1) | 24.8 nM
* CAAGUACAUGAGGAUCACCCAUGUGGAAGAGAUGCAGGAUAUGUGGGAGAAGGGAGUGUAACAGAAGGGCAAGGAG [JR_SS!_Sub019] (puzzle: Same State 1) | 113 nM

Okay, now this sequence:
Under MS2 coat protein: apparent KD of MS2 coat protein value of UCAAGCGAGAGGCUCGUCUUAUGUUUGGUACAUGAGGAUCACCCAUGUUAGGGACGAUUUAGUUAGAUGGAAUGGAG [JR_SHM208A_Sub034] (puzzle: Sensor for hsa-mir-208a) ?
57.3 nM
